The origin of these recorded values is paper PMC11013662.

Here's what we have: MIC numbers for Staphylococcus aureus ATCC 6538.

Recorded results for 4 molecules are shown here.
{"MOLECULE": "FC(F)(F)c1cccc(-c2n[nH]c(=S)n2-c2cccc(Cl)c2)c1", "TEST TARGET": "Staphylococcus aureus ATCC 6538", "MIC": "> 1000 µg/mL"}
{"MOLECULE": "O=C(NNC(=S)Nc1cccc(F)c1)c1cccc(C(F)(F)F)c1", "TEST TARGET": "Staphylococcus aureus ATCC 6538", "MIC": "15.6 µg/mL"}
{"MOLECULE": "O=C(NNC(=S)Nc1cccc(Cl)c1)c1cccc(C(F)(F)F)c1", "TEST TARGET": "Staphylococcus aureus ATCC 6538", "MIC": "1.95 µg/mL"}
{"MOLECULE": "CCCCNC(=S)NNC(=O)c1cccc(C(F)(F)F)c1", "TEST TARGET": "Staphylococcus aureus ATCC 6538", "MIC": "> 1000 µg/mL"}

Below are some molecules; for each one, tell me its MIC.
1. CO/N=C(\C(=O)N[C@@H]1C(=O)N2C(C(=O)O)=C(COC(N)=O)CS[C@H]12)c1ccco1 [Cef, cefuroxime, reference compound]
2. COc1cccc(NC(=S)NNC(=O)c2cccc(C(F)(F)F)c2)c1
3. Cc1cccc(NC(=S)NNC(=O)c2cccc(C(F)(F)F)c2)c1
4. O=C(NNC(=S)Nc1ccccc1)c1cccc(C(F)(F)F)c1

stdout:
1: 0.98 µg/mL; 2: > 1000 µg/mL; 3: > 1000 µg/mL; 4: > 1000 µg/mL

----------
Tested on: SW 620 human metastatic colon cancer cells
ASSAY INFO: MTT cytotoxicity assay
Type: cell-based
STUDY CONDITIONS: Homo sapiens; SW 620, MTT, 72 h
REPORTED PROPERTY: IC50

Solved cases below.
{"COMPOUND": "O=C(NNC(=S)Nc1cccc(Cl)c1)c1cccc(C(F)(F)F)c1 [Compound 3a]", "TEST TARGET": "SW 620 human metastatic colon cancer cells", "ENDPOINT VALUE": "69 µM"}
{"COMPOUND": "O=C(NNC(=S)Nc1ccccc1)c1cccc(C(F)(F)F)c1 [Compound 3f]", "TEST TARGET": "SW 620 human metastatic colon cancer cells", "ENDPOINT VALUE": "> 100 µM"}
{"COMPOUND": "COc1cccc(NC(=S)NNC(=O)c2cccc(C(F)(F)F)c2)c1 [Compound 3b]", "TEST TARGET": "SW 620 human metastatic colon cancer cells", "ENDPOINT VALUE": "> 100 µM"}

// next entry
stdin: Please give the measured IC50 for this compound: CCCCNC(=S)NNC(=O)c1cccc(C(F)(F)F)c1 [Compound 3c]
stdout: > 100 µM

----------
Please respond with reported IC50 for every item in the list.
System: SW 620 human metastatic colon cancer cells
ASSAY INFO: MTT cytotoxicity assay
Assay type: cell-based
STUDY CONDITIONS: Homo sapiens; SW 620, MTT, 72 h
Give bare numbers, in µM.

{"MOLECULE": "O=C(NNC(=S)Nc1cccc(F)c1)c1cccc(C(F)(F)F)c1", "UNIT STRING": "µM", "IC50": 89.9}

Please look at the following molecule next.
stdin: Which IC50 value belongs to COc1cccc2c1C(=O)c1c(O)c3c(c(O)c1C2=O)C[C@@](O)(C(=O)CO)C[C@@H]3O[C@H]1C[C@H](N)[C@H](O)[C@H](C)O1 [Ref, Doxorubicin, reference compound] ?
stdout: 1.83
